Where do these numbers come from? They come from PubChem BioAssay.

tested on: Human papillomavirus type 1a protein E7 (residues 44-93); assay: HPV1a E7 fragment binders on microarrays, primary screen, biochemical, small-molecule microarray, residues 44-93, 635 nm fluorescence (AID 1108); conditions: small-molecule microarray binding, fluorescence 635 nm; higher = more signal;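 also: E7 fragment applied at 1 µg/mL in TBST for 1 h at 4 C; score combines spot fluorescence with its signal to noise ratio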
Binary call on composite z-score: criterion met from 0.06 upward, criterion not met beneath that.

Please review the entries below; each comes with its answer.
[
  {
    "COMPOUND": "CO[C@H]1COC(=O)CCC[C@H](C)[C@H](OC)COC(=O)CC=C[C@@H]1C",
    "CATEGORY": "criterion not met"
  },
  {
    "COMPOUND": "CC(C)(C)N1C(=O)[C@H]2[C@H]3[C@H](O)[C@H](O)CC(=NNC(=O)OCc4ccccc4)[C@@H]3CC[C@H]2C1=O",
    "CATEGORY": "criterion met"
  },
  {
    "COMPOUND": "CCOC(=O)[C@H](Cc1ccccc1)NC(=O)CCC1CC(OC(=O)NCCc2ccc(F)cc2)CC2(CCCC(COC(=O)NCCC(C)C)O2)O1 (stereo not given in full)",
    "CATEGORY": "criterion met"
  },
  {
    "COMPOUND": "CCOC(=O)[C@H](Cc1ccccc1)NC(=O)CCC1CC(OC(=O)NCCc2ccc(F)cc2)CC2(CCCC(COC(=O)NCc3cccc(C(F)(F)F)c3)O2)O1 (stereo not given in full)",
    "CATEGORY": "criterion met"
  },
  {
    "COMPOUND": "CC(C)CON=C1C[C@@H](O)[C@@H](O)[C@@H]2[C@@H]3C(=O)N(C(C)(C)C)C(=O)[C@@H]3CC[C@@H]12",
    "CATEGORY": "criterion not met"
  },
  {
    "COMPOUND": "CCOC(=O)[C@H](Cc1ccccc1)NC(=O)CCC1CC(OC(=O)NCc2ccc3c(c2)OCO3)CC2(CCCC(COC(=O)NCCOc3ccccc3)O2)O1 (stereo not given in full)",
    "CATEGORY": "criterion met"
  },
  {
    "COMPOUND": "C[C@@H]1CC[C@H]2C(=O)OC(Cc3ccccc3)CN2[C@H]1c1ccc(Br)cc1 (stereo not given in full)",
    "CATEGORY": "criterion met"
  },
  {
    "COMPOUND": "CCOC(=O)[C@H](Cc1ccccc1)NC(=O)CCC1CC(OC(=O)NCCc2ccc(F)cc2)CC2(CCCC(COC(=O)NCCOc3ccccc3)O2)O1 (stereo not given in full)",
    "CATEGORY": "criterion met"
  },
  {
    "COMPOUND": "CC(CCC(=O)OC[C@H]1O[C@H](C#Cc2ccccc2)C=C[C@@H]1Oc1ccc(C)cc1)=NOC(C)CN1CCCCc2nc(C)c(C)cc21 (stereo not given in full)",
    "CATEGORY": "criterion met"
  },
  {
    "COMPOUND": "CO[C@H]1COC(=O)CC=C[C@H](C)[C@H](OC)COC(=O)[C@@H](C)NC(=O)CC=C[C@@H]1C",
    "CATEGORY": "criterion not met"
  }
]

Evaluate "COc1cccc([C@H]2Oc3ccc(OC)cc3C(=NO[C@@H](C)c3cc(-c4c(C)cc(C)cc4C)no3)[C@@H]2O)c1" : composite z-score at minimum 0.06?
criterion not met

hey, is composite z-score for this one >= 0.06? CC1(C)O[C@H]2OC([C@H](O)CON3C(=O)c4ccccc4C3=O)[C@H](O)[C@H]2O1 (stereo not given in full)
criterion not met

Please tell me: is the compound "COc1ccc(COC(=O)NN=C2C[C@@H](O)[C@@H](O)[C@@H]3[C@@H]4C(=O)N(c5cccc(Oc6ccccc6)c5)C(=O)[C@@H]4CC[C@H]23)cc1" at or over 0.06 in terms of composite z-score?
criterion not met

Can "CC(C)CON=C1C[C@@H](O)[C@@H](O)[C@@H]2[C@@H]3C(=O)N(c4ccc(F)cc4F)C(=O)[C@@H]3CC[C@@H]12" be said to have composite z-score at or above 0.06?
criterion met

Item "CCOC(=O)CCN1C(=O)[C@H]2[C@H]3[C@H](O)[C@H](O)CC(=NOCC=C(C)CCC=C(C)C)[C@H]3CC[C@H]2C1=O" with composite z-score of 0.06 or above?
criterion not met

Could you please find out whether CCOC(=O)[C@H](CC(C)C)NC(=O)CCC1CC(OC(=O)NCCc2ccc(F)cc2)CC2(CCCC(COC(=O)NCc3cccc(C(F)(F)F)c3)O2)O1 (stereo not given in full) has composite z-score that meets 0.06 or exceeds it?
criterion met

State whether the measured composite z-score reaches 0.06, counting equality as reaching it, for "CCN1C(=O)[C@H]2[C@H]3[C@H](O)[C@H](O)CC(=NNC(=O)OCc4ccccc4)[C@@H]3CC[C@H]2C1=O"
criterion not met

Hi team, for "CC(C)[C@@H](OCc1ccccc1)[C@H](C)C=NO[C@@H](C)c1cn([C@H](CO)Cc2ccccc2)nn1" , is the recorded composite z-score at or above 0.06?
criterion met

Given CCOC(=O)[C@H](CC(C)C)NC(=O)CCC1CC(OC(=O)NCc2ccc3c(c2)OCO3)CC2(CCCC(COC(=O)NCCc3ccc(Cl)cc3)O2)O1 (stereo not given in full) , state whether its composite z-score is at least 0.06.
criterion met

Form field: composite z-score at least 0.06? Entry: "Cc1ccc(C(C)C)n1C(=O)OC(C)(C)C"
criterion met

Record COC(=O)[C@H](C)NC(=O)CCC1CC(OC(=O)NCc2cccc3ccccc23)CC2(CCCC(COC(=O)NCCCN3CCCC3=O)O2)O1 (stereo not given in full) ; criterion: composite z-score no lower than 0.06. Met?
criterion met

Threshold query (composite z-score >= 0.06) on "COC(=O)[C@@H]1CC[C@H](C)[C@@H](c2ccc(Br)cc2)N1"
criterion not met

Answer whether composite z-score of "C[C@@H](c1ccccc1)N1C(=O)[C@H]2[C@H]3[C@H](O)[C@H](O)CC(=NOCc4ccccc4)[C@@H]3CC[C@H]2C1=O" is greater than or equal to 0.06.
criterion not met
